# Test Target: T1, human TGFβ1 (human, UniProt P01137 279-390)
# T1 construct: also called TGFβ1 homodimer
# T1 sequence (P01137 279-390 limits assumed): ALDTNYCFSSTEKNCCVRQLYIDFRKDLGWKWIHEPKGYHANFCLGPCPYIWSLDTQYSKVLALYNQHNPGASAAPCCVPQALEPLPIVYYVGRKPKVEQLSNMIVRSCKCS
# Experimental Protocol: Biacore, 3.33-90 nM, 1:1 global fit, vs wt GC1008
Measured Quantity: KD mutant/KD wt
Enter a number only.

QUERY: For the binder I54F (antibody, V domains shown, GC1008 IgG4 variant) VH: QVQLVQSGAEVKKPGSSVKVSCKASGYTFSSNVISWVRQAPGQGLEWMGGVIPFVDIANYAQRFKGRVTITADESTSTTYMELSSLRSEDTAVYYCASTLGLVLDAMDYWGQGTLVTVSS VL: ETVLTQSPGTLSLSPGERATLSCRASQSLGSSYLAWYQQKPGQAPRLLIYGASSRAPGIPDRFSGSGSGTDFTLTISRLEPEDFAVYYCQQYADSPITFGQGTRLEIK , what KD mutant/KD wt is on record?
RESULT: 1.3

QUERY: Also D56R (antibody, V domains shown, GC1008 IgG4 variant) VH: QVQLVQSGAEVKKPGSSVKVSCKASGYTFSSNVISWVRQAPGQGLEWMGGVIPIVRIANYAQRFKGRVTITADESTSTTYMELSSLRSEDTAVYYCASTLGLVLDAMDYWGQGTLVTVSS VL: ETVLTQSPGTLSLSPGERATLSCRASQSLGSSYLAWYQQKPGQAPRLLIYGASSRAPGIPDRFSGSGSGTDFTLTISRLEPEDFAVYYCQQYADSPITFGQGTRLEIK ?
RESULT: 1
